Answer each item with its documented pIC50.
Note on pIC50: it is the negative log10 of concentration, concentration in mol/L.

input: GET pIC50 where system = hBChE (Homo sapiens, UniProt P06276) and item = C#CCN1CCC(CCc2ccc(OC(=O)N(C)CC)cc2)CC1 [Compound 14]
Sequence (P06276 29-602): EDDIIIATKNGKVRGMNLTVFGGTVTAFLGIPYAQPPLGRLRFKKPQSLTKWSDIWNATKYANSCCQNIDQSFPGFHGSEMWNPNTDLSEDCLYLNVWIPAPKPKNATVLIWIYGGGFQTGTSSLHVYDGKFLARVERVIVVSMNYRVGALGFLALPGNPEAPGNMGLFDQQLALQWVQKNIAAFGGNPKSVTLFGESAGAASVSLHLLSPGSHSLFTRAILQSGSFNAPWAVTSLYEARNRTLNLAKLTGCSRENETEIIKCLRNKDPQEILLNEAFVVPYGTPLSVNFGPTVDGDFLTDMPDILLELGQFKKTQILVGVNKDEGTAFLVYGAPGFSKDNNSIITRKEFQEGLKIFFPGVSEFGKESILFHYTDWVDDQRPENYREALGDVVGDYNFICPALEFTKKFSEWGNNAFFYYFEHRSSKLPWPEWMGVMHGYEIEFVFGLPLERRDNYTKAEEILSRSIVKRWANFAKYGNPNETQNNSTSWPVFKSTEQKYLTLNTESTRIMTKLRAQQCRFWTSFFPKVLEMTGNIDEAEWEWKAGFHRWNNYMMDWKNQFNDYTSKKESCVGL
output: 4.12

input: GET pIC50 where system = hBChE (Homo sapiens, UniProt P06276) and item = C#CCN1CCC(CCc2cccc(OC(=O)Nc3ccccc3)c2)CC1 [Compound 13]
output: 5.36

###

The following are reported IC50 results, target or system hMAO-A (Homo sapiens).
The answer is to be given in µM; state only the numeric part.

input: Fill in reported IC50 for this entry: "C#CCN1CCC(/C=C/c2ccc(O)cc2)CC1"
output: 15.5

input: Fill in reported IC50 for this entry: "C#CCN1CCC(CCc2ccc(O)cc2)CC1"
output: 34

###

Answer each item with its documented remaining activity at 100 µM.
experimental system: hMAO-A (Homo sapiens)
Construct: purchased Sigma Aldrich; host or cells: BTI-TN-5B1-4 insect cells
Sequence (P21397 1-527): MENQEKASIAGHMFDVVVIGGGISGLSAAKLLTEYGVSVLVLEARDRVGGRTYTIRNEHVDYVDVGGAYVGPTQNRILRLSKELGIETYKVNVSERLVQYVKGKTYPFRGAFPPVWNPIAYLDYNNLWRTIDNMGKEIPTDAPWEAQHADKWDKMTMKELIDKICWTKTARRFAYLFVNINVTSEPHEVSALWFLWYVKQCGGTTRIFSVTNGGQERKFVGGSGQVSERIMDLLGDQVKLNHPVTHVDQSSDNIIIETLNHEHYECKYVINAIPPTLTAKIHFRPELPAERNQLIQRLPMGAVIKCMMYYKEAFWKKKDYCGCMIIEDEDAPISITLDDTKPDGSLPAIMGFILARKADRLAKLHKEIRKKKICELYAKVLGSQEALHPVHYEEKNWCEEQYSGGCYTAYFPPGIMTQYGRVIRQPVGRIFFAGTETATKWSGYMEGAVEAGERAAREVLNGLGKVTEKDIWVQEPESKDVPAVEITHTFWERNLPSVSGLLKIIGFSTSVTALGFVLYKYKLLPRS
experiment notes: HRP-Amplex Red coupled fluorimetric assay, hMAO-A
Type: biochemical
assay context: 0.25 h; residual activity at 100 µM compound; 15 min incubation at 37 °C; RA above 50% considered inactive; read-out: RA ± SD (%) at 100 µM, hMAO-A

input: Fill in reported remaining activity at 100 µM for this entry: "C#CCN1CCC(/C=C/c2ccc(OC)cc2)CC1"
output: 52.6%

input: Fill in reported remaining activity at 100 µM for this entry: "C#CCN1CCC(CCc2cccc(OC)c2)CC1"
output: 59.8%

input: Fill in reported remaining activity at 100 µM for this entry: "C#CCN1CCC(CCc2cccc(OC(=O)N(C)CC)c2)CC1"
output: 69.4%

###

experimental system: hBChE (Homo sapiens)
Construct: gift from Xavier Brazzolotto, Florian Nachon and José Dias (IRBA, Brétigny-sur-Orge, France)
experiment notes: Ellman method cholinesterase assay, hBChE
Assay type: biochemical
assay context: residual activity at 100 µM compound; 5-min pre-incubation; RA above 50% considered inactive
Answer each item with its documented RA ± SD (%) at 100 µM, hBChE.
The answer is to be given in %; state only the numeric part.

input: Fill in reported RA ± SD (%) at 100 µM, hBChE for this entry: C#CCN1CCC(CCc2ccc(OC(=O)Nc3ccccc3)cc2)CC1 [Compound 12]
output: 60.2

input: Fill in reported RA ± SD (%) at 100 µM, hBChE for this entry: C#CCN1CCC(/C=C/c2ccc(OC)cc2)CC1 [Compound 6]
output: 68.8

input: Fill in reported RA ± SD (%) at 100 µM, hBChE for this entry: C#CCN1CCC(CCc2ccc(OC)cc2)CC1 [Compound 7]
output: 51.2

input: Fill in reported RA ± SD (%) at 100 µM, hBChE for this entry: C#CCN1CCC(CCc2ccc(O)cc2)CC1 [Compound 10]
output: 53.8

input: Fill in reported RA ± SD (%) at 100 µM, hBChE for this entry: C#CCN1CCC(CCc2cccc(OC)c2)CC1 [Compound 8]
output: 55.5

input: Fill in reported RA ± SD (%) at 100 µM, hBChE for this entry: C#CCN1CCC(CCc2cccc(O)c2)CC1 [Compound 11]
output: 72.9

input: Fill in reported RA ± SD (%) at 100 µM, hBChE for this entry: C#CCN1CCC(/C=C/c2ccc(O)cc2)CC1 [Compound 9]
output: 64.9

###

experimental system: hAChE (Homo sapiens, UniProt P22303)
Construct: gift from Xavier Brazzolotto, Florian Nachon and José Dias (IRBA, Brétigny-sur-Orge, France)
Sequence (P22303 32-614): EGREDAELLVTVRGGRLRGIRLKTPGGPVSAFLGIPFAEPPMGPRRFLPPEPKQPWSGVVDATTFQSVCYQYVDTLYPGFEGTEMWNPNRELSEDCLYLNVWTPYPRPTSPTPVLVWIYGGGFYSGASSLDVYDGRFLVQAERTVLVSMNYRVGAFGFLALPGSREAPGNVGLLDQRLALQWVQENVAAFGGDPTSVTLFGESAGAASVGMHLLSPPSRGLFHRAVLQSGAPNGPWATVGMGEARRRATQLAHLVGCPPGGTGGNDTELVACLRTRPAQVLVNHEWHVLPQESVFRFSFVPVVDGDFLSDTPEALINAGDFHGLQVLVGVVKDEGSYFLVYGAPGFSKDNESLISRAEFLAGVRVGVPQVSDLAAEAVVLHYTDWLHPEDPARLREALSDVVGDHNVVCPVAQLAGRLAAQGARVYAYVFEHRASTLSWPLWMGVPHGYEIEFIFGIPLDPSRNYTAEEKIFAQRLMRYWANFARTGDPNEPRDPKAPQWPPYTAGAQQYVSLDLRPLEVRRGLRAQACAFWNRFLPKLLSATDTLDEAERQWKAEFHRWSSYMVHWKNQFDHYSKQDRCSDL
experiment notes: Ellman method cholinesterase assay, hAChE
Type: biochemical
assay context: residual activity at 100 µM compound; 5-min pre-incubation; RA above 50% considered inactive; read-out: RA ± SD (%) at 100 µM, hAChE
Answer each item with its documented remaining activity at 100 µM.
The answer is to be given in %; state only the numeric part.

input: Fill in reported remaining activity at 100 µM for this entry: "C#CCN1CCC(CCc2ccc(O)cc2)CC1"
output: 61.4

input: Fill in reported remaining activity at 100 µM for this entry: "C#CCN1CCC(CCc2cccc(OC)c2)CC1"
output: 73.2

input: Fill in reported remaining activity at 100 µM for this entry: "C#CCN1CCC(CCc2ccc(OC(=O)Nc3ccccc3)cc2)CC1"
output: 52.2

input: Fill in reported remaining activity at 100 µM for this entry: "C#CCN1CCC(CCc2cccc(OC(=O)Nc3ccccc3)c2)CC1"
output: 51.9

input: Fill in reported remaining activity at 100 µM for this entry: "C#CCN1CCC(/C=C/c2ccc(OC)cc2)CC1"
output: 61.9

input: Fill in reported remaining activity at 100 µM for this entry: "C#CCN1CCC(CCc2ccc(OC(=O)N(C)CC)cc2)CC1"
output: 66.1

input: Fill in reported remaining activity at 100 µM for this entry: "C#CCN1CCC(CCc2cccc(O)c2)CC1"
output: 54.7

input: Fill in reported remaining activity at 100 µM for this entry: "C#CCN1CCC(/C=C/c2ccc(O)cc2)CC1"
output: 65.9

input: Fill in reported remaining activity at 100 µM for this entry: "C#CCN1CCC(CCc2ccc(OC)cc2)CC1"
output: 73.1

input: Fill in reported remaining activity at 100 µM for this entry: "C#CCN1CCC(CCc2cccc(OC(=O)N(C)CC)c2)CC1"
output: 60.2
